Listing of entries alongside the reported MIC.
system: Bacillus spizizenii; assay: Antibacterial activity against Bacillus subtilis ATCC 6633 assessed as growth inhibition after 18 to 24 hrs by microdilution assay; format: functional
Report the figure in µg/mL without appending any unit label.

Completed entries (count: 4):
givenSmiles: CCCCCCCCCCn1c(-c2cc[n+](CCCCCCCCCC)cc2)cc(=O)c2ccccc21.[Br-]
assayTarget: Bacillus spizizenii
unitAbbrev: µg/mL
MIC: 62.5
//
givenSmiles: CCCCCCCCCCCCCn1c(-c2cc[n+](CCCCCCCCCCCCC)cc2)cc(=O)c2ccccc21.[Br-]
assayTarget: Bacillus spizizenii
unitAbbrev: µg/mL
MIC: 250
//
givenSmiles: CCCCCCCn1c(-c2cc[n+](CCCCCCC)cc2)cc(=O)c2ccccc21.[Br-]
assayTarget: Bacillus spizizenii
unitAbbrev: µg/mL
MIC: 62.5
//
givenSmiles: CCCCCn1c(-c2cc[n+](CCCCC)cc2)cc(=O)c2ccccc21.[Br-]
assayTarget: Bacillus spizizenii
unitAbbrev: µg/mL
MIC: 62.5

Turning now to a further compound:
// query // MIC lookup, key: `CCCCCCCCCCCCCCCn1c(-c2cc[n+](CCCCCCCCCCCCCCC)cc2)cc(=O)c2ccccc21.[Br-]`
// result 500

* * *

system: Klebsiella pneumoniae; assay: Antibacterial activity against Klebsiella pneumoniae ATCC 13883 assessed as growth inhibition after 18 to 24 hrs by microdilution assay; type: functional
propertyName: MIC

Completed entries (count: 5):
givenSmiles: CCCCCCCn1c(-c2cc[n+](CCCCCCC)cc2)cc(=O)c2ccccc21.[Br-]
MIC: 62.5 µg/mL
--
givenSmiles: CCCCCCCCCn1c(-c2cc[n+](CCCCCCCCC)cc2)cc(=O)c2ccccc21.[Br-]
MIC: 31.2 µg/mL
--
givenSmiles: CCCCCCCCCCCCCCn1c(-c2cc[n+](CCCCCCCCCCCCCC)cc2)cc(=O)c2ccccc21.[Br-]
MIC: 500 µg/mL
--
givenSmiles: CCCCCCCCCCn1c(-c2cc[n+](CCCCCCCCCC)cc2)cc(=O)c2ccccc21.[Br-]
MIC: 62.5 µg/mL
--
givenSmiles: CCCCCCCCn1c(-c2cc[n+](CCCCCCCC)cc2)cc(=O)c2ccccc21.[Br-]
MIC: 31.2 µg/mL

// query // MIC lookup, key: `CCCCCCCCCCCCCCCn1c(-c2cc[n+](CCCCCCCCCCCCCCC)cc2)cc(=O)c2ccccc21.[Br-]`
// result 250 µg/mL

// query // MIC lookup, key: `CCCCCCCCCCCCCn1c(-c2cc[n+](CCCCCCCCCCCCC)cc2)cc(=O)c2ccccc21.[Br-]`
// result 250 µg/mL

// query // MIC lookup, key: `CCCCCCCCCCCCn1c(-c2cc[n+](CCCCCCCCCCCC)cc2)cc(=O)c2ccccc21.[Br-]`
// result 125 µg/mL

* * *

tested on: Staphylococcus aureus; assay: Antibacterial activity against Staphylococcus aureus ATCC 25923 assessed as growth inhibition after 18 to 24 hrs by microdilution assay; format: functional
The threshold is 30 µg/mL. Values of MIC beneath it are tagged true (1); values meeting or exceeding it are tagged false (0).

Some entries whose results are on file:
givenSmiles: CCCCCCCCCCCCCCCn1c(-c2cc[n+](CCCCCCCCCCCCCCC)cc2)cc(=O)c2ccccc21.[Br-]
classLabel: false (0)

givenSmiles: CCCCCCCCn1c(-c2cc[n+](CCCCCCCC)cc2)cc(=O)c2ccccc21.[Br-]
classLabel: true (1)

givenSmiles: CCCCCCCCCn1c(-c2cc[n+](CCCCCCCCC)cc2)cc(=O)c2ccccc21.[Br-]
classLabel: false (0)

// query Field: below-cutoff. Rule: recorded MIC strictly less than 30 µg/mL. Subject: `CCCCCn1c(-c2cc[n+](CCCCC)cc2)cc(=O)c2ccccc21.[Br-]`
// result true (1)

// query Field: below-cutoff. Rule: recorded MIC strictly less than 30 µg/mL. Subject: `CCCCCCCCCCCCCn1c(-c2cc[n+](CCCCCCCCCCCCC)cc2)cc(=O)c2ccccc21.[Br-]`
// result false (0)

// query Field: below-cutoff. Rule: recorded MIC strictly less than 30 µg/mL. Subject: `CCCCCCCCCCCCn1c(-c2cc[n+](CCCCCCCCCCCC)cc2)cc(=O)c2ccccc21.[Br-]`
// result false (0)

// query Field: below-cutoff. Rule: recorded MIC strictly less than 30 µg/mL. Subject: `CCCCCCn1c(-c2cc[n+](CCCCCC)cc2)cc(=O)c2ccccc21.[Br-]`
// result true (1)

// query Field: below-cutoff. Rule: recorded MIC strictly less than 30 µg/mL. Subject: `CCCCCCCCCCCn1c(-c2cc[n+](CCCCCCCCCCC)cc2)cc(=O)c2ccccc21.[Br-]`
// result false (0)

// query Field: below-cutoff. Rule: recorded MIC strictly less than 30 µg/mL. Subject: `CCCCCCCCCCn1c(-c2cc[n+](CCCCCCCCCC)cc2)cc(=O)c2ccccc21.[Br-]`
// result false (0)

// query Field: below-cutoff. Rule: recorded MIC strictly less than 30 µg/mL. Subject: `CCCCCCCn1c(-c2cc[n+](CCCCCCC)cc2)cc(=O)c2ccccc21.[Br-]`
// result false (0)

// query Field: below-cutoff. Rule: recorded MIC strictly less than 30 µg/mL. Subject: `CCCCCCCCCCCCCCn1c(-c2cc[n+](CCCCCCCCCCCCCC)cc2)cc(=O)c2ccccc21.[Br-]`
// result false (0)
